# reported DC50; entries follow
Molecular target: p38δ (Homo sapiens)
Construct: endogenous in cells; host or cells: MDA-MB-231
Test: PROTAC-induced p38δ degradation, western blot in MDA-MB-231 cells
Assay type: cell-based
Settings: 0.025-5.0 µM survey, biological duplicates, ± one s.d., Supplementary Table 1

compound	reading.unit	DC50
COc1cc2c(Oc3ccc(NC(=O)C4(C(=O)Nc5ccc(F)cc5)CC4)cc3F)ccnc2cc1OCCCOCCCOCCC(=O)N[C@H](C(=O)N1C[C@H](O)C[C@H]1C(=O)NCc1ccc(-c2scnc2C)cc1)C(C)(C)C	nM	456
COc1cc2c(Oc3ccc(NC(=O)C4(C(=O)Nc5ccc(F)cc5)CC4)cc3F)ccnc2cc1OCCOCCOCCOc1cc(-c2scnc2C)ccc1CNC(=O)[C@@H]1C[C@@H](O)CN1C(=O)[C@H](C(C)C)N1Cc2ccccc2C1=O	nM	79.2
COc1cc2c(Oc3ccc(NC(=O)C4(C(=O)Nc5ccc(F)cc5)CC4)cc3F)ccnc2cc1OCCCOCCCOCCCOc1cc(-c2scnc2C)ccc1CNC(=O)C1CC(O)CN1C(=O)C(C(C)C)N1Cc2ccccc2C1=O (stereo not drawn)	nM	1140
COc1cc2c(Oc3ccc(NC(=O)C4(C(=O)Nc5ccc(F)cc5)CC4)cc3F)ccnc2cc1OCCCCOCCCCOc1cc(-c2scnc2C)ccc1CNC(=O)C1CC(O)CN1C(=O)C(C(C)C)N1Cc2ccccc2C1=O (stereo not drawn)	nM	106
COc1cc2c(Oc3ccc(NC(=O)C4(C(=O)Nc5ccc(F)cc5)CC4)cc3F)ccnc2cc1OCCCOCCOCCCOc1cc(-c2scnc2C)ccc1CNC(=O)C1CC(O)CN1C(=O)C(C(C)C)N1Cc2ccccc2C1=O (stereo not drawn)	nM	1890
COc1cc2c(Oc3ccc(NC(=O)C4(C(=O)Nc5ccc(F)cc5)CC4)cc3F)ccnc2cc1OCCCCOCCCCOCC(=O)N[C@H](C(=O)N1C[C@H](O)C[C@H]1C(=O)NCc1ccc(-c2scnc2C)cc1)C(C)(C)C	nM	1160

###

// reported Dmax p38δ (maximum percentage of degradation) per item
Target: p38δ (Homo sapiens, UniProt O15264)
Construct: endogenous in cells; host or cells: MDA-MB-231
Sequence (O15264 whole entry): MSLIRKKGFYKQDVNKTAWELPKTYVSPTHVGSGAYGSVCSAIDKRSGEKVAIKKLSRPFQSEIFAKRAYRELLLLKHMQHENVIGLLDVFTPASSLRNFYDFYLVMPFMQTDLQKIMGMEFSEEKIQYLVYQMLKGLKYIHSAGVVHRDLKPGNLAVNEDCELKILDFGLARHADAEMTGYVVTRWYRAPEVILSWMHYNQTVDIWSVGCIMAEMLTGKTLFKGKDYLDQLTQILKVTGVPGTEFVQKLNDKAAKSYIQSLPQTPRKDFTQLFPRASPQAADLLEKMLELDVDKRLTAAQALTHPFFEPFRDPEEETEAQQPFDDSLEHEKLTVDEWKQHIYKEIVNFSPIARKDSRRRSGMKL
Test: PROTAC-induced p38δ degradation, western blot in MDA-MB-231 cells
Assay type: cell-based
Details: 0.025-5.0 µM survey, ± one s.d., Supplementary Table 1
reported.metric: Dmax p38δ (maximum percentage of degradation)

molecule	result
COc1cc2c(Oc3ccc(NC(=O)C4(C(=O)Nc5ccc(F)cc5)CC4)cc3F)ccnc2cc1OCCCOCCCOCCCOc1cc(-c2scnc2C)ccc1CNC(=O)C1CC(O)CN1C(=O)C(C(C)C)N1Cc2ccccc2C1=O (stereo not shown)	33.5 ± 27.2%
COc1cc2c(Oc3ccc(NC(=O)C4(C(=O)Nc5ccc(F)cc5)CC4)cc3F)ccnc2cc1OCCCOCCOCCC(=O)N[C@H](C(=O)N1C[C@H](O)C[C@H]1C(=O)NCc1ccc(-c2scnc2C)cc1)C(C)(C)C	96.7 ± 3.7%
COc1cc2c(Oc3ccc(NC(=O)C4(C(=O)Nc5ccc(F)cc5)CC4)cc3F)ccnc2cc1OCCOCCOCCC(=O)N[C@H](C(=O)N1C[C@H](O)C[C@H]1C(=O)NCc1ccc(-c2scnc2C)cc1)C(C)(C)C	81.8 ± 1.9%
COc1cc2c(Oc3ccc(NC(=O)C4(C(=O)Nc5ccc(F)cc5)CC4)cc3F)ccnc2cc1OCCCOCCOCCCOc1cc(-c2scnc2C)ccc1CNC(=O)C1CC(O)CN1C(=O)C(C(C)C)N1Cc2ccccc2C1=O (stereo not shown)	78.7 ± 40.8%
